// data source = PubChem BioAssay AID588634

system: NIH-3T3 fibroblast viability, Alamar Blue fluorescence, 48 h; experiment: mammalian cell viability loss – Alamar Blue, cherry-pick, cytotoxicity control for antifungal single agent project, dose response (AID 588634)
readout_type: AC50

Give the measured AC50 of CN1CCN(C(c2ccc(C(F)(F)F)cc2)c2ccc3cccnc3c2O)CC1 (configuration not stated) .
852 nM

Give the measured AC50 of "Oc1ccc(N=Nc2ccc3c(c2)OCCO3)c2ncccc12" .
702 nM

Give the measured AC50 of Oc1c(C(c2ccc(Cl)cc2)N2CCCC2)cc(Cl)c2cccnc12 (configuration not stated) .
1470 nM

Give the measured AC50 of CCCCC(=O)NC(c1ccc(N(CC)CC)cc1)c1ccc2cccnc2c1O (configuration not stated) .
1250 nM

Give the measured AC50 of "Oc1c(CN2CCN(c3ccccc3)CC2)cc(Br)c2cccnc12" .
1390 nM

Give the measured AC50 of "CCOc1ccc(N=Nc2ccc(O)c3ncccc23)cc1" .
289 nM

Give the measured AC50 of "Cc1ccc(C(=O)c2coc3c2C(=O)C(=O)c2ccccc2-3)cc1" .
8170 nM

###

tested on: NIH-3T3 fibroblast viability, Alamar Blue fluorescence, 48 h; experiment: mammalian cell viability loss – Alamar Blue, cherry-pick, cytotoxicity control for antifungal single agent project, dose response (AID 588634)
Kindly state AC50 for each of the entries shown.

Give the measured AC50 of "O=C(Oc1c(Cl)cc(Cl)c2cccnc12)c1ccco1" .
409 nM

Give the measured AC50 of Cc1cc(NC(c2ccc(Cl)cc2)c2ccc3cccnc3c2O)no1 (configuration not stated) .
3660 nM

Give the measured AC50 of "O=c1ccc(N=Nc2ccccc2)ccc1O" .
1600 nM

Give the measured AC50 of "O=Cc1ccc(O)c2ncccc12" .
913 nM

Give the measured AC50 of "CCN(CC)S(=O)(=O)c1cc(OC)ccc1N=Nc1ccc(O)c2ncccc12" .
753 nM

Give the measured AC50 of "COc1cccc(N=Nc2ccc3cccnc3c2O)c1" .
712 nM

Give the measured AC50 of "O=[N+]([O-])c1cc(CN2CCN(c3ccccc3)CC2)c(O)c2ncccc12" .
109 nM

Give the measured AC50 of "C/C(=N\NC(=O)c1cc2ccccc2cc1O)c1ccccn1" .
1040 nM

Give the measured AC50 of "COc1cccc(N=Nc2ccc(O)c3ncccc23)c1" .
279 nM

Give the measured AC50 of "O=[N+]([O-])c1ccc(O)c(/C=N/Nc2ccc(Cl)nn2)c1" .
1600 nM

Give the measured AC50 of "COc1ccc(C)cc1N=Nc1ccc(O)c2ncccc12" .
303 nM

Give the measured AC50 of Oc1c(C(Nc2nccs2)c2ccc(C(F)(F)F)cc2)ccc2cccnc12 (configuration not stated) .
1740 nM

###

test system: NIH-3T3 fibroblast viability, Alamar Blue fluorescence, 48 h; assay: mammalian cell viability loss – Alamar Blue, cherry-pick, cytotoxicity control for antifungal single agent project, dose response (AID 588634)
Kindly state AC50 for each of the entries shown.

Value wanted: AC50 (NIH-3T3 fibroblast viability, Alamar Blue fluorescence, 48 h) of entry "O=C(N/N=C/c1c(O)ccc2ccccc12)c1cccc(C(F)(F)F)c1"
4340 nM

Value wanted: AC50 (NIH-3T3 fibroblast viability, Alamar Blue fluorescence, 48 h) of entry "COc1cccc(/C=N/Nc2ncnc3scc(-c4ccccc4)c23)c1O"
2070 nM

Value wanted: AC50 (NIH-3T3 fibroblast viability, Alamar Blue fluorescence, 48 h) of entry "Oc1c(CN2CCN(c3ccc(F)cc3)CC2)cc(Cl)c2cccnc12"
1290 nM

Value wanted: AC50 (NIH-3T3 fibroblast viability, Alamar Blue fluorescence, 48 h) of entry Oc1c(C(Nc2nc3ccccc3s2)c2ccco2)ccc2cccnc12 (stereo not given)
1850 nM

Value wanted: AC50 (NIH-3T3 fibroblast viability, Alamar Blue fluorescence, 48 h) of entry CCCCC(=O)NC(c1ccco1)c1cc(Cl)c2cccnc2c1O (stereo not given)
705 nM
